# credit: paper PMC11077555

# measurement_target: human recombinant PSMA (Homo sapiens, UniProt Q04609)
# Sequence (Q04609 whole entry): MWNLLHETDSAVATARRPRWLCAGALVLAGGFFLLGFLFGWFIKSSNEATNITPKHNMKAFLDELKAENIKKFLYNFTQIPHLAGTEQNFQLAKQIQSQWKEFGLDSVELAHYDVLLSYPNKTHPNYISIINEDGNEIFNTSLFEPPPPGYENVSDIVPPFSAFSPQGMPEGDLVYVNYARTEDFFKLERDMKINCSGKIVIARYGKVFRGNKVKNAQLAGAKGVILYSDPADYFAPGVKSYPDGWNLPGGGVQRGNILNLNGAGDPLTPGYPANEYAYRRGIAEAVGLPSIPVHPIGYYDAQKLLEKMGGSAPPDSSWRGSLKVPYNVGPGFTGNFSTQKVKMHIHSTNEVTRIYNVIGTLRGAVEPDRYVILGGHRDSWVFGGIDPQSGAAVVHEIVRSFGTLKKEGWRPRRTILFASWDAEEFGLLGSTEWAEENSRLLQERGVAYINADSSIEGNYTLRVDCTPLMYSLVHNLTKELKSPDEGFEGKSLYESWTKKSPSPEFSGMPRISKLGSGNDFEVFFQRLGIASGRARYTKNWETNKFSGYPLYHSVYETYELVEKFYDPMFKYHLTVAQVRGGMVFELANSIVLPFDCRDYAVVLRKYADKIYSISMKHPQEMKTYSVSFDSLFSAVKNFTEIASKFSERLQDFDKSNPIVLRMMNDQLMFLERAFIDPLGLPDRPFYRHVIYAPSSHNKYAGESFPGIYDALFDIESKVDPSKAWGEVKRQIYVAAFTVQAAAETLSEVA
# test_description: Fluorescence polarization
pKd: −log10 of the molar value.
measurement_name: pKd

# molecule, value_prefix, reading
data = [
    ("O=C(CCNS(=O)(=O)c1ccc2ccccc2c1)N[C@H]1C[C@H](C(=O)NCCOCCOCCNC(=S)Nc2ccc3c(c2)C(=O)OC32c3ccc(O)cc3Oc3cc(O)ccc32)N(C(=O)c2nn(-c3ccccc3)c(=O)[nH]c2=O)C1", "<", 5.00),
    ("C#CC[C@@H](NC(=O)[C@@H]1C[C@@H](C2CCCCC2)CN1C(=O)CSC1CCN(C(=O)CC[C@H](NC(=O)N[C@@H](CCC(=O)O)C(=O)O)C(=O)O)CC1)C(=O)NCCOCCOCCNC(=S)Nc1ccc2c(c1)C(=O)OC21c2ccc(O)cc2Oc2cc(O)ccc21", "=", 8.89),
    ("C#CC[C@H](NC(=O)[C@@H]1C[C@@H](C2CCCCC2)CN1C(=O)CSC1CCN(C(=O)CC[C@H](NC(=O)N[C@@H](CCC(=O)O)C(=O)O)C(=O)O)CC1)C(=O)NCCOCCOCCNC(=S)Nc1ccc2c(c1)C(=O)OC21c2ccc(O)cc2Oc2cc(O)ccc21", "=", 9.05),
    ("N#Cc1cccc(C[C@H](NC(=O)c2nn(-c3ccccc3)c(=O)[nH]c2=O)C(=O)N[C@@H](Cc2ccc(CP(=O)(O)O)cc2)C(=O)N[C@@H](CCCCNC(=S)Nc2ccc3c(c2)C(=O)OC32c3ccc(O)cc3Oc3cc(O)ccc32)C(=O)O)c1", "=", 6.59),
    ("O=C(O)CC[C@H](NC(=O)N[C@@H](CCC(=O)O)C(=O)O)C(=O)O [HIT3, reference compound]", "=", 9.00),
]
